Taken from ChEMBL document CHEMBL5614381.

target under test: UniProt P14324
Sequence (P14324 whole entry): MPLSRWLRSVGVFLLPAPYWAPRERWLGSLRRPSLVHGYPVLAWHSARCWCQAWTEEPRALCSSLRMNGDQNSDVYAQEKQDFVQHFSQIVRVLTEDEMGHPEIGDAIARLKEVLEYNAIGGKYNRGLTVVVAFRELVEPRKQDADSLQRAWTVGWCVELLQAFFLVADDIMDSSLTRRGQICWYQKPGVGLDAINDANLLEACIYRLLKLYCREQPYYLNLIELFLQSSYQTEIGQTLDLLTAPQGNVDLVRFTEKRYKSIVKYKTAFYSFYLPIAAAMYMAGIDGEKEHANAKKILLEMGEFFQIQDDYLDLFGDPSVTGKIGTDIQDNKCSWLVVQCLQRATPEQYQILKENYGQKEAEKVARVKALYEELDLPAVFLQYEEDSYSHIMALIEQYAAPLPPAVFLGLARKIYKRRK
protocol: Inhibition of human recombinant FPPS using IPP as substrate preincubated with enzyme for 15 mins followed by substrate addition and measured after 1 hr
endpoint: IC50

1) COc1cc(/C=C/C#N)ccc1OCCOc1ccc(/C=C/C#N)cc1OC = 3.22 µM
2) CCOC(=O)/C=C/c1ccc(OCCOc2ccc(/C=C/C(=O)OCC)cc2OC)c(OC)c1 = 5.98 µM
3) COc1cc(/C=C/C(C)=O)ccc1OCCOc1ccc(/C=C/C(C)=O)cc1OC = 1.11 µM
4) CCN(CC)P(=O)(C(O)c1ccc(OCCOc2ccc(C(O)P(=O)(N(CC)CC)N(CC)CC)cc2OC)c(OC)c1)N(CC)CC (stereo not given) = 2.47 µM
5) COc1cc(C=S)ccc1OCCOc1ccc(C=S)cc1OC = 22.7 µM

====

Listed here: items and their measured pIC50.
target under test: Farnesyl pyrophosphate synthase (Homo sapiens)
protocol: Inhibition of human recombinant FPPS using IPP as substrate preincubated with enzyme for 15 mins followed by substrate addition and measured after 1 hr
pIC50: −log10 of the molar value.
endpoint: pIC50

1) COc1cc(C(O)P(=O)(N(C)C)N(C)C)ccc1OCCOc1ccc(C(O)P(=O)(N(C)C)N(C)C)cc1OC (stereo not given) = 5.26
2) COC(=O)/C=C/c1ccc(OCCOc2ccc(/C=C/C(=O)OC)cc2OC)c(OC)c1 = 5.91
3) COc1cc(C(O)P(=O)(OC)OC)ccc1OCCOc1ccc(C(O)P(=O)(OC)OC)cc1OC (stereo not given) = 4.67
4) COc1cc(C2SP(=S)(Sc3ccccc3)S2)ccc1OCCOc1ccc(C2SP(=S)(Sc3ccccc3)S2)cc1OC (stereo not given) = 5.47
5) COc1cc(C=O)ccc1OCCOc1ccc(C=O)cc1OC = 4.90
